tested on: SW-620 colon; assay: NCI tumour cell line growth inhibition, 48 h
readout-name: GI50

| compound | measured-target | observed-measurement |
| --- | --- | --- |
| COc1ccccc1N1CCN(CCCOc2ccc(C(=O)/C=C3/C(=O)Nc4ccccc43)cc2)CC1 | SW-620 colon | 12.6 µM |
| COc1c(N2CCN(CN3C(=O)C(=O)c4ccccc43)C(C)C2)c(F)cc2c(=O)c(C(=O)O)cn(C3CC3)c12 (configuration not stated) | SW-620 colon | 33.5 µM |
| CC(C)=CCc1c(O)c(C(=O)CC(C)C)c(O)c2c(-c3ccccc3)cc(=O)oc12 | SW-620 colon | 14.5 µM |
| CCCC(=O)Nc1c(I)cc(I)c(CC(CC)C(=O)O)c1I (configuration not stated) | SW-620 colon | > 100 µM |
| C=C1C(=O)O[C@H]2[C@H]1CC/C(Cn1cc(-c3ccsc3)nn1)=C\CC[C@@]1(C)O[C@@H]21 | SW-620 colon | 1.32 µM |
| CCC1(N)C(=O)OCc2c1cc1n(c2=O)Cc2cc3ccccc3nc2-1 (configuration not stated) | SW-620 colon | 12.9 µM |
| CCCc1n(Cc2ccc3ccccc3n2)cc[n+]1Cc1ccc2ccccc2c1 | SW-620 colon | 1.91 µM |

----------
test system: HT29 colon; experiment: NCI tumour cell line growth inhibition, 48 h
Quick reference: log10 TGI of the listed items.
readout-name: log10 TGI (log10 of the value in µM)

| compound | log10 TGI |
| --- | --- |
| COc1ccc2[nH]c3c(C)c4ncccc4c(C)c3c2c1 | 0.84 |
| CCN(CC)CCC(=O)N1C/C(=C/c2ccccc2)C(=O)/C(=C\c2ccccc2)C1 | 0.35 |
| COc1ccccc1N1CCN(CCCOc2ccc(C(=O)/C=C3/C(=O)Nc4ccccc43)cc2)CC1 | 1.09 |
| CC(C)Cc1ccc(C(C)/C=C2\CCC(CN3CCCCC3)C2=O)cc1 (stereo not given) | 1.20 |
| CC(C)C[C@H](NC(=O)CCc1cccc2ccccc12)B(O)O | 0.80 |
| CC(C)=CCC/C(C)=C/CC/C(C)=C/C1CCC(=O)C1(C)C (stereo not given) | 1.51 |
| COC(=O)CCCNC(=O)C(=O)c1c(O)c(O)c(C(C)C)c2cc(C)c(-c3c(C)cc4c(C(C)C)c(O)c(O)c(C(=O)C(=O)NCCCC(=O)OC)c4c3O)c(O)c12 | 0.58 |
| COc1ccc2c(c1)OC1c3ccccc3OCC21 (stereo not given) | 1.97 |
| Fc1cc2nc3n(c2cc1F)C(c1c(Cl)cccc1Cl)SC3 (stereo not given) | 1.47 |

----------
test system: SR leukemia; test: NCI tumour cell line growth inhibition, 48 h
Square brackets hold non-standard residues; d marks the D form. Peptide text beside a SMILES is read from it. Phe(4-NO2) = N[CH](Cc1ccc([N+](=O)[O-])cc1)C(=O)O

| molecule | TGI |
| --- | --- |
| COC(=O)[C@]1(Cc2ccc3ccccc3c2)CCCCCCN1C(=O)c1ccccc1 | > 100 µM |
| CC(=Nc1ccccc1)C1=C(O)C(Cc2ccc(F)cc2)NC1=O (stereo unspecified) | > 100 µM |
| Nc1nc(Cl)c(C=O)c(NCC2(CO)CCC2)n1 | 43.8 µM |
| COC(=O)CCC(NC(=O)C(CCC(=O)OC)NC(=O)C(CCC(=O)OC)NC(=O)C(CCC(=O)OC)NC(=O)C(CCC(=O)OC)NC(=O)C(Cc1ccc([N+](=O)[O-])cc1)NC(=O)C(CCC(=O)OC)NC(=O)C(CCC(=O)OC)NC(=O)C(CCC(=O)OC)NC(=O)C(CCC(=O)OC)NC(=O)C(CCC(=O)OC)NC(C)=O)C(N)=O (stereo unspecified) (Ac-E(OMe)E(OMe)E(OMe)E(OMe)E(OMe)[Phe(4-NO2)]E(OMe)E(OMe)E(OMe)E(OMe)E(OMe)-NH2; configuration not given here) | > 100 µM |
| C=CCOC1OC(CS(=O)(=O)O)C(OC(C)=O)C(OC(C)=O)C1OC(C)=O (stereo unspecified) | > 100 µM |
| COc1cc(OC2OC(CO)C(O)C(O)C2O)c2c(c1)O[C@@H]1[C@H](O)Oc3cc(OC)c(OC)cc3[C@]1(O)C2=O (stereo partly specified) | > 25 µM |
